B1: C1orf137 (parent)
chain: RQHHHQSSFPGSLPQETNLTLKVC

# Variants of: B1
# test-description: protein stability index of a GFP-peptide fusion (GPS, HEK-293T) (PSI 1-6); higher = more stable;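 note: lentivirally expressed fusions sorted by FACS into six bins by GFP to DsRed ratio, PSI derived from sequencing read proportions per bin multiplied by bin number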
# study-conditions: c terminus: a fixed tail appended
measure-name: protein stability index
# output: bare number, no unit

Examples from the recorded data:
F9L | 3.53
S7D | 3.23
S8R | 2.57

The reported protein stability index of the variant Q15H was 2.51

The reported protein stability index of the variant T17Y was 2.09

The reported protein stability index of the variant P14W was 1.62
